Each recorded value in this set is attributed to the NIST ThermoML archive (doi:10.1021/je0600808).

Listing of recorded viscosity by entry.
- condition_notes: 343.15 K; 101.33 kPa; Liquid
measured_property: viscosity (mPa·s)

INSERT INTO assay_data (compound, measured_number) VALUES
  ('CCOC(=O)OCC [diethyl carbonate]', 0.435),
  ('CCCCCO [pentan-1-ol]', 1.146),
  ('CCCO [propan-1-ol]', 0.742),
  ('CCCCO [butan-1-ol]', 0.92);

====

- condition_notes: 333.15 K; 101.33 kPa; Liquid
Numbers after ± are expanded uncertainties.
measured_property: mass density

INSERT INTO measurements (molecule, result) VALUES
  ('CCCO', '767.31 ± 2 kg/m3'),
  ('CCCCO', '777.81 ± 3.9 kg/m3'),
  ('CCCCCO', '781.81 ± 1.9 kg/m3'),
  ('CCOC(=O)OCC [diethyl carbonate]', '928.69 ± 1.9 kg/m3');

====

- condition_notes: 353.15 K; 101.33 kPa; Liquid
Numbers after ± are expanded uncertainties.
Listing of recorded mass density by entry.
measured_property: mass density

INSERT INTO assay_data (compound, result) VALUES
  ('CCCCO', '757.52 ± 4.1 kg/m3'),
  ('CCCO', '748.41 ± 2.1 kg/m3'),
  ('CCCCCO', '764.79 ± 2 kg/m3'),
  ('CCOC(=O)OCC [diethyl carbonate]', '905.02 ± 2.2 kg/m3');

====

- condition_notes: 303.15 K; 101.33 kPa; Liquid
Listing of recorded mass density by entry.
measured_property: mass density (kg/m3)

INSERT INTO results (compound, measured_number) VALUES
  ('CCCCO [butan-1-ol]', 802.03),
  ('CCCCCO [pentan-1-ol]', 806.77),
  ('CCCO [propan-1-ol]', 795.27),
  ('CCOC(=O)OCC [diethyl carbonate]', 962.39);

====

- condition_notes: 343.15 K; 101.33 kPa; Liquid
Listing of recorded mass density by entry.
measured_property: mass density (kg/m3)

INSERT INTO assay_data (molecule, units_symbol, measured_number) VALUES
  ('CCCCCO [pentan-1-ol]', 'kg/m3', 772.84),
  ('CCOC(=O)OCC [diethyl carbonate]', 'kg/m3', 916.33),
  ('CCCO [propan-1-ol]', 'kg/m3', 755.95),
  ('CCCCO [butan-1-ol]', 'kg/m3', 767.03);

====

- condition_notes: 303.15 K; 101.33 kPa; Liquid
Listing of recorded viscosity by entry.
measured_property: viscosity (mPa·s)

INSERT INTO results (compound, units_symbol, measured_number) VALUES
  ('CCCCO', 'mPa·s', 2.298),
  ('CCCCCO', 'mPa·s', 3.06),
  ('CCCO', 'mPa·s', 1.745),
  ('CCOC(=O)OCC [diethyl carbonate]', 'mPa·s', 0.695);

====

- condition_notes: 363.15 K; 101.33 kPa; Liquid
measured_property: viscosity (mPa·s)

INSERT INTO measurements (molecule, measured_number) VALUES
  ('CCCO', 0.515),
  ('CCCCO', 0.63),
  ('CCCCCO', 0.767),
  ('CCOC(=O)OCC [diethyl carbonate]', 0.358);
